Sourced from patent US20210040184A1

In this section, each of the binders is paired with its reported IC50 of virus neutralization (TZM-BL, luciferase).
Biological target: HIV-1 REJO4541.67 envelope (Env) on Env.IMC.LucR virus (HIV-1 clade B)
Assay: cell-based or functional assay

binder	observed
Hydro2 (antibody, V domains shown) VH: ADLVQSGAVVKKPGDSVRISCEAQGYRFPDYIIHWIRRAPGQGPEWMGWMNPMGGQVNIPQKFQGRVSMTRDTSIETAFLDLRGLKSDDTAVYYCVRDRSNGSGKRFESSNWFLDLWGRGTAVTIQS VL: QSALTQPRSVSASPGQSVTISCTGTHNLVSWCQHQPGRAPKLLIYDFNKRPSGVPDRFSGSGSGGTASLTITGLQDDDDAEYFCWAYENFGGGTKLTVL	≤ 0.02 µg/mL

Turning now to a further record.
query: Record request: IC50 of virus neutralization (TZM-BL, luciferase) value, item Germ12_NglycoSA_CysCA (antibody, V domains shown) VH: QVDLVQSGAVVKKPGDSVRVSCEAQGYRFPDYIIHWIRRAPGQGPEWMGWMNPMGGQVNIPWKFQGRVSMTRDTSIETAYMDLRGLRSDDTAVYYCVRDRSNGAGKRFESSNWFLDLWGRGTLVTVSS VL: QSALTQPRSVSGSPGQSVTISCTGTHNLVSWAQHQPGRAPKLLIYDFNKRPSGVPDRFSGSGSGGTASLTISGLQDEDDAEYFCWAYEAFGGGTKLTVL
result: 0.028 µg/mL
